tested-system: nuclear translocation factor 2-like (NTF2L) domain of human G3BP1 (human, UniProt Q13283-1 1-138)
Sequence (Q13283 other isoform, or with tags, fused parts or gaps): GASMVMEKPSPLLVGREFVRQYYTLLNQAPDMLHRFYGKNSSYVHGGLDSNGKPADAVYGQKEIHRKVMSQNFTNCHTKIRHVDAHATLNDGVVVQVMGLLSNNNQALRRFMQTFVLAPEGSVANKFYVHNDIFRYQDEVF
assay-method-text: ITC
attribute-measured: pKd
Note: pKd values are expressed as the negative base-10 logarithm of concentration in M.

Sample ITFGDFNDGEIESLSSELLTFGDFLP [CHIKV-26 peptide (residues Ile473 to Pro498 of CHIKV nsP3, without the α2 region)] ; pKd observed: 5.11

Sample CHIKV nsP3 peptide CHIKV-43 (residues Glu469-Thr511) (peptide) GPLGSETFPITFGDFNDGEIESLSSELLTFGDFLPGEVDDLTDSDWSTHHHHHH ; pKd observed: 7.11
